Exercise: for every item that follows, state its recorded Slope (95% CL).
# TEST SYSTEM: histamine H2-receptor (isolated guinea pig right atrium) (Cavia porcellus)
# Construct: All other tissue was carefully trimmed away, leaving only the right atrium; from tissue; host or cells: isolated right atrium of guinea pig (Hartley strain) heart
# Sequence (P47747 whole entry): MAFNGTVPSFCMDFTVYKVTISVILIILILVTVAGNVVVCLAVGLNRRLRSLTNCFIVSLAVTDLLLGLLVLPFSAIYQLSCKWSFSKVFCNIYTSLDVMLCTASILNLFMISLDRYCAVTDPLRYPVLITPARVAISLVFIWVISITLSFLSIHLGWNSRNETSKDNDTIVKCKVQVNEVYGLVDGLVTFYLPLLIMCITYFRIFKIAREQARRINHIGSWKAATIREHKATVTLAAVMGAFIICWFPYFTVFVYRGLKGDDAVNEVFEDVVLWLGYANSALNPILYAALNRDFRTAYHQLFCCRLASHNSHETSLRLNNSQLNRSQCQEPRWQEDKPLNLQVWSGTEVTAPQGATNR
# EXPERIMENT SUMMARY: Histamine H2-receptor antagonism: histamine-induced chronotropic response of isolated guinea pig right atrium
# CONDITION DESCRIPTION: slope of histamine log dose-response regression line, alone (control) or in presence of 10^-6 M compound; 95% CL in brackets

Provide each entry's Slope (95% CL) from the list below.
1. CNC(=S)N[C@H]1C[C@H]2CC[C@@H](C1)N2Cc1nc[nH]c1C
2. CNC(=S)N[C@@H]1C[C@H]2CC[C@@H](C1)N2Cc1nc[nH]c1C
3. CNC(=NC#N)N[C@H]1C[C@H]2CC[C@@H](C1)N2Cc1nc[nH]c1C
4. NCCc1c[nH]cn1 [histamine, reference compound]
5. CNC(=S)NCCSCc1nc[nH]c1C [metiamide, reference compound]
6. CNC(=NC#N)N[C@@H]1C[C@H]2CC[C@@H](C1)N2Cc1nc[nH]c1C

["0.64 (0.18-1.10)", "0.99 (0.95-1.03)", "0.64 (0.18-1.10)", "0.63 (0.50-0.76)", "0.47 (0.41-0.53)", "0.58 (0.23-0.93)"]

Value lookup for Slope (95% CL); key = CN/C(=N/CCSCc1nc[nH]c1C)NC#N [cimetidine, reference compound]
0.67 (0.28-1.06)

====

# TEST SYSTEM: histamine H2-receptor (isolated guinea pig right atrium) (Cavia porcellus)
# Construct: All other tissue was carefully trimmed away, leaving only the right atrium; from tissue; host or cells: isolated right atrium of guinea pig (Hartley strain) heart
# EXPERIMENT SUMMARY: Histamine H2-receptor antagonism: histamine-induced chronotropic response of isolated guinea pig right atrium
# CONDITION DESCRIPTION: histamine ED50 for increase in heart rate, alone (control) or in presence of 10^-6 M compound; 10^-6 M propranolol; 95% CL in brackets
Exercise: for every item that follows, state its recorded ED50 of histamine (95% CL).

The cases that follow already have their ED50 of histamine (95% CL) on record.
Value lookup for ED50 of histamine (95% CL); key = CN/C(=N/CCSCc1nc[nH]c1C)NC#N [cimetidine, reference compound]
49.0 (43.7-55.0) × 10^-7 M

Value lookup for ED50 of histamine (95% CL); key = CNC(=S)N[C@@H]1C[C@H]2CC[C@@H](C1)N2Cc1nc[nH]c1C
40.7 (27.5-60.3) × 10^-7 M

Value lookup for ED50 of histamine (95% CL); key = CNC(=S)NCCSCc1nc[nH]c1C [metiamide, reference compound]
49.0 (30.9-77.6) × 10^-7 M

Value lookup for ED50 of histamine (95% CL); key = CNC(=NC#N)N[C@@H]1C[C@H]2CC[C@@H](C1)N2Cc1nc[nH]c1C
6.92 (0.22-138.0) × 10^-7 M

Value lookup for ED50 of histamine (95% CL); key = CNC(=S)N[C@H]1C[C@H]2CC[C@@H](C1)N2Cc1nc[nH]c1C
11.0 (4.37-27.5) × 10^-7 M

Now for another entry.
Value lookup for ED50 of histamine (95% CL); key = CNC(=NC#N)N[C@H]1C[C@H]2CC[C@@H](C1)N2Cc1nc[nH]c1C
11.0 (5.01-24.0) × 10^-7 M
